assay.target: KDM4B (Homo sapiens, UniProt O94953)
Sequence (O94953 whole entry, species assumed): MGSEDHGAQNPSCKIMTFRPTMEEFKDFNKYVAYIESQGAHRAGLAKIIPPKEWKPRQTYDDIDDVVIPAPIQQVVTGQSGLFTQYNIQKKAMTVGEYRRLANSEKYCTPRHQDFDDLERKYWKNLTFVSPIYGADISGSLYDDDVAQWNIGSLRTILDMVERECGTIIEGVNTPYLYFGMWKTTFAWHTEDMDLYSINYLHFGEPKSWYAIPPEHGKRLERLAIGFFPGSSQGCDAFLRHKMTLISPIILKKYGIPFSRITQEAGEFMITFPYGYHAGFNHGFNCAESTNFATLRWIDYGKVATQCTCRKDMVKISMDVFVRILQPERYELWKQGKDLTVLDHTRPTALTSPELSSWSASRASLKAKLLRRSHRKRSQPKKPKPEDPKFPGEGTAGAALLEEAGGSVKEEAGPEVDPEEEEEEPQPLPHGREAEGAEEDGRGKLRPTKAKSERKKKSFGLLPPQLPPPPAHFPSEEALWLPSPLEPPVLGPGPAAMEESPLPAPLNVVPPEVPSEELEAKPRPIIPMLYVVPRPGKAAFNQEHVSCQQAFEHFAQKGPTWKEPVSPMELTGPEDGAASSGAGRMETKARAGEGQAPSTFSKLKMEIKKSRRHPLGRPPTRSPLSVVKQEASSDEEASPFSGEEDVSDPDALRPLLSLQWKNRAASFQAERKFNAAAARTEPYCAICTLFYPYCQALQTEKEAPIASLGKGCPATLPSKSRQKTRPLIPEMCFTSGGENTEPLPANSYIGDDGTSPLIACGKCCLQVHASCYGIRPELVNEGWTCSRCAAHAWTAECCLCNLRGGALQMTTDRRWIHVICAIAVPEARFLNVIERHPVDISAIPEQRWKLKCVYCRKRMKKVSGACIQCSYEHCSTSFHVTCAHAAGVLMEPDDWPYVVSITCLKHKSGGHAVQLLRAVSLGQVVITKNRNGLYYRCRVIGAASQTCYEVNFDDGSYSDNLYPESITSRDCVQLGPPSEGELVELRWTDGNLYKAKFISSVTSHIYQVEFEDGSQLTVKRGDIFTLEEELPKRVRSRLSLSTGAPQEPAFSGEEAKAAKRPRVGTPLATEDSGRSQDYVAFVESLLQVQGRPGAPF
assay.comment: KDM4B inhibition
Format: biochemical
measured.parameter: IC50 (µM)
Write down the numeric answer in µM and omit the unit.

Task: Provide IC50 value for the following compound: CN(C)CCCNC(=O)c1ccc(-c2cc(O)c3ncccc3c2)cc1 [ML324]
Result: 4.9
